- Test system: UniProt:P28223
- Sequence (P28223 whole entry): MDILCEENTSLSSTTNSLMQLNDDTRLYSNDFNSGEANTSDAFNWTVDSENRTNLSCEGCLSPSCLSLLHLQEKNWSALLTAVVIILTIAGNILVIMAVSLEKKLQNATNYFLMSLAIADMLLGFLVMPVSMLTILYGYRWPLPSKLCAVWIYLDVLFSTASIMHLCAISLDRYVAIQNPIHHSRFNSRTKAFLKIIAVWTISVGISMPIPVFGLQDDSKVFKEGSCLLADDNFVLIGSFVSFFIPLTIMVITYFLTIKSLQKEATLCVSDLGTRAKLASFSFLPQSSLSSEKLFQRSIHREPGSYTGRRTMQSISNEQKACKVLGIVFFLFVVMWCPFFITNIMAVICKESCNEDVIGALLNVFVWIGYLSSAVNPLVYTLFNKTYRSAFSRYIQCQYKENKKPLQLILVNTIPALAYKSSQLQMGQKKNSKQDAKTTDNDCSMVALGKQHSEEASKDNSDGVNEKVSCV
pKi: −log10 of the molar value.
Metric name: pKi

> print(dat)
                                        smi  numeric.result
1  COc1ccc(CCN(CCCc2ccc(F)cc2)CCc2ccc3c(c2)OCO3)cc1OC            6.73
2  COc1ccc(CCN(CCCc2cccc(Cl)c2)CCc2ccc3c(c2)OCO3)cc1OC            6.90
3  COc1ccc(CCN(CCCc2cccc(F)c2)CCc2ccc3c(c2)OCO3)cc1OC            6.73
4  COc1ccc(CCN(CCCc2cccc(I)c2)CCc2ccc3c(c2)OCO3)cc1OC            6.77

====

- Species on record: Homo sapiens
- Assay method text: Selectivity index, ratio of Ki for human 5-HT2A receptor to Ki for human 5-HT2B receptor
Metric name: Ratio Ki

> print(dat)
                                        smi  metric.name  numeric.result
1  COc1ccc(CCN(CCCc2ccc(Br)cc2)CCc2ccc3c(c2)OCO3)cc1OC     Ratio Ki               5
2  COc1ccc(CCN(CCCc2ccccc2I)CCc2ccc3c(c2)OCO3)cc1OC     Ratio Ki               6

A = COc1ccc(CCN(CCCc2ccccc2Br)CCc2ccc3c(c2)OCO3)cc1OC
B = COc1ccc(CCN(CCCc2ccc(I)cc2)CCc2ccc3c(c2)OCO3)cc1OC
Please let me know which one, A or B , has a lower measured Ratio Ki value. Record your answer as the label of the chosen record.
B
(B: 6, A: 16)

====

- Species: Homo sapiens
- Assay method text: Selectivity index, ratio of Ki for human 5-HT2C receptor to Ki for human 5-HT2B receptor
Metric name: Ratio Ki

a = COc1ccc(CCN(CCCc2ccc(F)cc2)CCc2ccc3c(c2)OCO3)cc1OC
b = COc1ccc(CCN(CCCc2ccccc2)CCc2ccc3c(c2)OCO3)cc1OC
Rank a against b by their Ratio Ki values and give the higher one. Record your answer as the label of the chosen record.
b
(b: 15, a: 9)

====

- Organism: Homo sapiens
- Assay method text: Selectivity index, ratio of Ki for human 5-HT2C receptor to Ki for human 5-HT2B receptor
Metric name: Ratio Ki

> print(dat)
                                        smi  numeric.result
1  COc1ccc(CCN(CCCc2ccccc2Br)CCc2ccc3c(c2)OCO3)cc1OC              36
2  COc1ccc(CCN(CCCc2ccc(Cl)cc2)CCc2ccc3c(c2)OCO3)cc1OC               4

1 = COc1ccc(CCN(CCCc2cccc(F)c2)CCc2ccc3c(c2)OCO3)cc1OC
2 = COc1ccc(CCN(CCCc2ccc(I)cc2)CCc2ccc3c(c2)OCO3)cc1OC
Rank 1 against 2 by their Ratio Ki values and give the higher one. Record your answer as the label of the chosen record.
1
(1: 9, 2: 4)

P = COc1ccc(CCN(CCCc2ccccc2F)CCc2ccc3c(c2)OCO3)cc1OC
Q = COc1ccc(CCN(CCCc2cccc(I)c2)CCc2ccc3c(c2)OCO3)cc1OC
Please let me know which one, P or Q , has a lower measured Ratio Ki value. Record your answer as the label of the chosen record.
Q

P = COc1ccc(CCN(CCCc2ccccc2Cl)CCc2ccc3c(c2)OCO3)cc1OC
Q = COc1ccc(CCN(CCCc2ccc(Br)cc2)CCc2ccc3c(c2)OCO3)cc1OC
R = COc1ccc(CCN(CCCc2cccc(Cl)c2)CCc2ccc3c(c2)OCO3)cc1OC
Kindly order the items shown according to Ratio Ki, from the highest value down. # list labels per requested ordering
P, R, Q
